# system: T1, Murine FGFR2IIIb (murine, UniProt P21803-2 22-263, limits assumed)
# T1 construct: Construct used in the ELISA is not described
# T1 sequence (P21803 other isoform, or with tags, fused parts or gaps limits assumed): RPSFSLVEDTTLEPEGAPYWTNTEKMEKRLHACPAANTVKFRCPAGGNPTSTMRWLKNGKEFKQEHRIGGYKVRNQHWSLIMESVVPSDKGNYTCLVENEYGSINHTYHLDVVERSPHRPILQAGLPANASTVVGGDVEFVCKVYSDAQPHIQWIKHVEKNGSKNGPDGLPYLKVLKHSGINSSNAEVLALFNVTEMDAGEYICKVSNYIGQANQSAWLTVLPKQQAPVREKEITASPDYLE
# experiment: ELISA, coated antigen, anti-Fab HRP
For each entry below, report its pEC50 value.
Kindly note that pEC50 refers to -log10 of the concentration in mol/L and answer with the value alone.

Query: Query (binder): FWB1906 (antibody, V domains shown) VH: QVQLVQSGAEVKKPGSSVKVSCKASGYIFTSYNVHWVRQAPGQGLEWIGSIYPDNGDSSYNQNYRGRATITADKSTSTAYMELSSLRSEDTAVYYCARGDFAYWGQGTLVTVSS VL: DIQMTQSPSSLSASVGDRVTITCKASNGISNDIAWYQQKPGKAPKLLIYSASYRYSGVPSRFSGSGSGTDFTFTISSLQPEDIATYYCQQHSTTPYTFGQGTKLEIK ; field requested: pEC50
Reply: 9.54

Query: Need pEC50, item FWB1907 (antibody, V domains shown) VH: QVQLVQSGAEVKKPGSSVKVSCKASGYIFTSYNVNWVRQAPGQGLEWIGSIYPDNGDSSYNNNYKGRATITADKSTSTAYMELSSLRSEDTAVYYCARGDFAYWGQGTLVTVSS VL: DIQMTQSPSSLSASVGDRVTITCRASNGISNDIAWYQQKPGKAPKLLIYSASYRYSGVPSRFSGSGSGTDFTFTISSLQPEDIATYYCQQHSTTPYTFGQGTKLEIK
Reply: 8.23

Query: // query pEC50 value for entry FWB1918 (antibody, V domains shown) VH: QVQLVQSGAEVKKPGSSVKVSCKASGYIFTSYNVHWVRQAPGQGLEWIGSIYPDNGDSSYNQNFRGRATITADKSTSTAYMELSSLRSEDTAVYYCARGDFAYWGQGTLVTVSS VL: DIQMTQSPSSLSASVGDRVTITCKGSNGISNDIAWYQQKPGKAPKLLIYSASYRYSGVPSRFSGSGSGTDFTFTISSLQPEDIATYYCQQHSTTPYTFGQGTKLEIK
Reply: 9.57
